# study_system: Histamine H2 receptor (Cavia porcellus) (UniProt P47747)
# Sequence (P47747 whole entry): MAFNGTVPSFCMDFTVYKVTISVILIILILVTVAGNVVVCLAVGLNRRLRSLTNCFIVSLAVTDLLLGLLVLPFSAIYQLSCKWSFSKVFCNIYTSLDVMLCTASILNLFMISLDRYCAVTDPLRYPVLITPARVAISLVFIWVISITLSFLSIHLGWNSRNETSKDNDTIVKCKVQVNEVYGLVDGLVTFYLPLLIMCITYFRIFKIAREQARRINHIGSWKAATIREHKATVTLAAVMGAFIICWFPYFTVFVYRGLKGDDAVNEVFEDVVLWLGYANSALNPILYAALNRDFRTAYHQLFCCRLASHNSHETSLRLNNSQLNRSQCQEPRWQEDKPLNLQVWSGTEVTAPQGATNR
# test_method_notes: Agonist activity at guinea pig histamine H2 receptor assessed as potentiation of histamine-induced response after 30 mins relative to histamine
Assign Criterion met to entries whose Efficacy meets or exceeds 50%; assign Criterion not met to the rest.

Below, 3 molecules whose answers are already recorded.
CC(CC(=O)/N=C(\N)NCCCc1ccccn1)c1ccccc1 (configuration not stated): Criterion not met
CC(CC(=O)/N=C(\N)NCCCc1ccc(CN(C)C)o1)c1ccccc1 (configuration not stated): Criterion not met
CC(CC(=O)/N=C(\N)NCCCc1c[nH]cn1)c1ccccc1 (configuration not stated): Criterion met

(Q) I'd appreciate it if you could say whether CC(CC(=O)/N=C(\N)NCCCc1cn[nH]c1)c1ccccc1 (configuration not stated) has Efficacy at least equal to 50%.
(A) Criterion met

(Q) I'd appreciate it if you could say whether CC(CC(=O)/N=C(\N)NCCCc1ncn[nH]1)c1ccccc1 (configuration not stated) has Efficacy at least equal to 50%.
(A) Criterion met

(Q) I'd appreciate it if you could say whether N/C(=N\C(=O)CC(c1ccccc1)c1ccccc1)NCCCc1ncn[nH]1 has Efficacy at least equal to 50%.
(A) Criterion met

(Q) I'd appreciate it if you could say whether N/C(=N\C(=O)CC(c1ccccc1)c1ccccc1)NCCCc1cn[nH]c1 has Efficacy at least equal to 50%.
(A) Criterion not met

* * *

# study_system: Histamine H2 receptor (Homo sapiens)
# Sequence (P25021 whole entry, the tested form may be a part): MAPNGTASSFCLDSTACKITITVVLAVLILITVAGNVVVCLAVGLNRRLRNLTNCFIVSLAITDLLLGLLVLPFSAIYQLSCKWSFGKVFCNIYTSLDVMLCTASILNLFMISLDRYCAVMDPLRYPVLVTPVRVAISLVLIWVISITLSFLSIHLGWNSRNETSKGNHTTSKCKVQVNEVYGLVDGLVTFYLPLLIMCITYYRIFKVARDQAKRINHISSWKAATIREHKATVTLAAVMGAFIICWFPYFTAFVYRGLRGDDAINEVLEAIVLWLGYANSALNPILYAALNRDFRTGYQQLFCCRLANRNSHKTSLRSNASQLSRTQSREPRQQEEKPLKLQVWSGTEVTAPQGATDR
# test_method_notes: Antagonist activity at human recombinant histamine H2 receptor-Gsalphas fusion protein expressed in Sf9 cells assessed as inhibition of histamine-induced […] hydrolysis preincubated for 2 mins before [gamma32P]GTP addition measured after 20 mins by steady-state GTPase activity assay
# Type: functional
Quick reference for pKb among some compounds
Provide a numeric answer; units are not to be included.

Some compounds with known pKb results, for comparison:
N/C(=N\C(=O)CC(c1ccccc1)c1ccccc1)NCCCc1ccccc1: 5.89
N/C(=N\C(=O)CC(c1ccccc1)c1ccccc1)NCCCc1cn[nH]c1: 5.42
CN(C)Cc1ccc(CCCN/C(N)=N/C(=O)CC(c2ccccc2)c2nccs2)o1 (stereo unspecified): 6.13

(Q) Respond only with pKb recorded for CC(CC(=O)/N=C(\N)NCCCc1ccncc1)c1ccccc1 (stereo unspecified)
(A) 5.54

(Q) Respond only with pKb recorded for N/C(=N\C(=O)CC(c1ccccc1)c1ccccc1)NCCCn1ccnc1
(A) 5.82

* * *

# study_system: UniProt:P25021
# test_method_notes: Intrinsic activity at human recombinant histamine H2 receptor-Gsalphas fusion protein expressed in Sf9 cells assessed as [35S]GTPgammaS binding at 10 uM after 90 mins by liquid scintillation counting relative to histamine
# Assay type: functional
Quick reference for Intrinsic activity among some compounds
Provide a numeric answer; units are not to be included.

Some compounds with known Intrinsic activity results, for comparison:
Cc1nc(CCCCN/C(=N\C#N)NCCSc2ccccc2)c[nH]1: -0.05
CN/C(=N/C#N)NCCCCc1nc(N)n[nH]1: 0.31
N#C/N=C(/NCCCCNc1ccccn1)NCCSc1ccccc1: -0.13
N#C/N=C(/NCCCNc1nccc(N)n1)NCCSc1ccccc1: -0.11
CN/C(=N/C#N)NCCCNc1nc(N)n[nH]1: -0.03

(Q) Respond only with Intrinsic activity recorded for N#C/N=C(\NCCCCc1nc(N)n[nH]1)NCCSc1ccccc1
(A) 0.03

(Q) Respond only with Intrinsic activity recorded for CN/C(=N/C#N)NCCCc1c[nH]c(C)n1
(A) -0.02

(Q) Respond only with Intrinsic activity recorded for N#C/N=C(\NCCCNc1nc(N)n[nH]1)NCCSc1ccccc1
(A) -0.01

(Q) Respond only with Intrinsic activity recorded for CN/C(=N/C#N)NCCCCc1nc[nH]c1C
(A) 0.04

(Q) Respond only with Intrinsic activity recorded for N#C/N=C(/NCCCCNc1nc(N)n[nH]1)NCCSc1ccccc1
(A) -0.09

(Q) Respond only with Intrinsic activity recorded for CN/C(=N\C#N)NCCCSc1nc(N)n[nH]1
(A) -0.02

(Q) Respond only with Intrinsic activity recorded for Cc1nccn1CCCCCN/C(=N\C#N)NCCSc1ccccc1
(A) -0.08

(Q) Respond only with Intrinsic activity recorded for CN/C(=N/C#N)NCCCCCn1ccnc1C
(A) -0.07

(Q) Respond only with Intrinsic activity recorded for N#C/N=C(\NCCNc1ccnc(N)n1)NCCSc1ccccc1
(A) -0.07

(Q) Respond only with Intrinsic activity recorded for N#C/N=C(/NCCCNc1ccccn1)NCCSc1ccccc1
(A) -0.12

(Q) Respond only with Intrinsic activity recorded for N#C/N=C(/NCCCSc1nc(N)n[nH]1)NCCSc1ccccc1
(A) -0.05

(Q) Respond only with Intrinsic activity recorded for CN/C(=N/C#N)NCCCCc1c[nH]c(C)n1
(A) 0.04

(Q) Respond only with Intrinsic activity recorded for N#C/N=C(\NCCCCc1cnn[nH]1)NCCSc1ccccc1
(A) -0.04

(Q) Respond only with Intrinsic activity recorded for Cc1nc(CCCN/C(=N\C#N)NCCSc2ccccc2)c[nH]1
(A) -0.05

(Q) Respond only with Intrinsic activity recorded for Cc1[nH]cnc1CCCCN/C(=N\C#N)NCCSc1ccccc1
(A) -0.06

(Q) Respond only with Intrinsic activity recorded for N#C/N=C(/NCCNc1nccc(N)n1)NCCSc1ccccc1
(A) -0.08

* * *

# study_system: Histamine H4 receptor (Homo sapiens, UniProt Q9H3N8)
# Sequence (Q9H3N8 whole entry, the tested form may be a part): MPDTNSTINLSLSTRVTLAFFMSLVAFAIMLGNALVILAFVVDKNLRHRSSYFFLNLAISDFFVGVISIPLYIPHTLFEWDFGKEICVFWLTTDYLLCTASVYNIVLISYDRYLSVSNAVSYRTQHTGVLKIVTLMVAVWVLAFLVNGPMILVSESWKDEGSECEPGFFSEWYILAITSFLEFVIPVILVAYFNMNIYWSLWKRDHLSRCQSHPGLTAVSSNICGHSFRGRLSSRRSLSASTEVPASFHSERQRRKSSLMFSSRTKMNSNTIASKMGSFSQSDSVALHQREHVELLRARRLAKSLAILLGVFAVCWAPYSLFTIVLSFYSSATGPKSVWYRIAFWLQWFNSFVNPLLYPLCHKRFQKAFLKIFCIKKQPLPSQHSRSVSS
# test_method_notes: Intrinsic activity at human recombinant histamine H4 receptor-RGS19 fusion protein expressed in Sf9 cells coexpressing Galphai2,Gbeta1gamma2 assessed as [35S]GTPgammaS binding at 10 uM after 90 mins by liquid scintillation counting relative to histamine
# Assay type: functional
Labelling field: enter T if recorded Intrinsic activity is less than -0.09. Enter F if it equals or exceeds that cut-off.

CN/C(=N\C#N)NCCCNc1ccccn1: T
CN/C(=N\C#N)NCCNc1nccc(N)n1: T
CN/C(=N/C#N)NCCCCc1nc[nH]c1C: F

(Q) Input CN/C(=N\C#N)NCCCCNc1ccccn1 ; condition: Intrinsic activity strictly below -0.09. Does it hold?
(A) T

(Q) Input CN/C(=N/C#N)NCCCCc1c[nH]c(C)n1 ; condition: Intrinsic activity strictly below -0.09. Does it hold?
(A) T

(Q) Input N#C/N=C(/NCCCCc1c[nH]cn1)NCCSc1ccccc1 ; condition: Intrinsic activity strictly below -0.09. Does it hold?
(A) F

* * *

# study_system: UniProtKB Q9H3N8
# test_method_notes: Intrinsic activity at human recombinant histamine H4 receptor-RGS19 fusion protein expressed in Sf9 cells coexpressing Galphai2,Gbeta1gamma2 preincubated for 2 mins before [gamma32P]GTP addition measured after 20 mins by steady-state GTPase activity assay relative to histamine
Labelling field: enter class 1 if recorded Intrinsic activity is less than 0.3. Enter class 0 if it equals or exceeds that cut-off.

CC(CC(=O)/N=C(\N)NCCCn1ccnc1)c1ccccc1 (stereo not drawn): class 0
CC(CC(=O)/N=C(\N)NCCCc1ncc[nH]1)c1cccs1 (stereo not drawn): class 0
CC(CC(=O)/N=C(\N)NCCCc1c[nH]cn1)c1ccccc1 (stereo not drawn): class 0
CN(C)Cc1ccc(CCCN/C(N)=N/C(=O)CC(c2ccccc2)c2ccccc2)o1: class 1
N/C(=N\C(=O)CC(c1ccccc1)c1ccccc1)NCCCc1ncc[nH]1: class 1
S=C(NC1CCCCC1)N1CCC(c2cnc[nH]2)CC1: class 1

(Q) Input CC(CC(=O)/N=C(\N)NCCCc1ccc(CN(C)C)o1)c1cccs1 (stereo not drawn) ; condition: Intrinsic activity strictly below 0.3. Does it hold?
(A) class 1

(Q) Input CC(CC(=O)/N=C(\N)NCCCc1ncc[nH]1)c1ccccc1 (stereo not drawn) ; condition: Intrinsic activity strictly below 0.3. Does it hold?
(A) class 0

* * *

Quick reference for Kb among some molecules
# study_system: Histamine H2 receptor (Cavia porcellus, UniProt P47747)
# test_method_notes: Antagonist activity at guinea pig histamine H2 receptor assessed as inhibition of histamine-induced response after 30 mins
# experimental_parameters: read-out: pA2 (converted)
Give the value, in units of µM, as a plain number.

Some molecules with known Kb results, for comparison:
CC(CC(=O)/N=C(\N)NCCCc1ncc[nH]1)c1ccccc1 (stereo unspecified): 12.6
CC(CC(=O)/N=C(\N)NCCCc1ccncc1)c1ccccc1 (stereo unspecified): 19.1

Read the next record carefully.
(Q) Check Histamine H2 receptor (Cavia porcellus, UniProt P47747) data and give Kb for CC(CC(=O)/N=C(\N)NCCCc1ncn[nH]1)c1ccccc1 (stereo unspecified) .
(A) 0.479

* * *

# study_system: Histamine H1 receptor (Homo sapiens) (UniProt P35367)
# Sequence (P35367 whole entry): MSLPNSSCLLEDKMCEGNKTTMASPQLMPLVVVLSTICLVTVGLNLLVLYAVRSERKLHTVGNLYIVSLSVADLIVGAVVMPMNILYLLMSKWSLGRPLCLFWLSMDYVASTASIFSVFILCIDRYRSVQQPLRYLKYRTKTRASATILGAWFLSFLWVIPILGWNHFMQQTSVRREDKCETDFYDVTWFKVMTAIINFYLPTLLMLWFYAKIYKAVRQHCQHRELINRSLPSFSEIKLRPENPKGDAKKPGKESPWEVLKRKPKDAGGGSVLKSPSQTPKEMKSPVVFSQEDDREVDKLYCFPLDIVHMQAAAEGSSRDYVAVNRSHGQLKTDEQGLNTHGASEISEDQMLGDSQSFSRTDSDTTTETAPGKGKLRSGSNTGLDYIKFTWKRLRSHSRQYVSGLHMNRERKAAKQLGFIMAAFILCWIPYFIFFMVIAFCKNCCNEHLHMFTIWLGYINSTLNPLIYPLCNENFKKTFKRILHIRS
# test_method_notes: Antagonist activity at human recombinant histamine H1 receptor expressed in Sf9 cells coexpressing RGS4 assessed as inhibition of histamine-induced […] hydrolysis preincubated for 2 mins before [gamma32P]GTP addition measured after 20 mins by steady-state GTPase activity assay
# Format: functional
observable: pKb

Some compounds with known pKb results, for comparison:
N/C(=N\C(=O)CC(c1ccccc1)c1ccccc1)NCCCn1ccnc1: < 5
CC(CC(=O)/N=C(\N)NCCCc1ncn[nH]1)c1ccccc1 (stereo not drawn): < 5
N/C(=N\C(=O)CC(c1ccccc1)c1ccccc1)NCCCc1ncn[nH]1: < 5

(Q) Respond only with pKb recorded for Cc1[nH]cnc1CCCCN/C(=N\C#N)NCCSc1ccccc1
(A) < 5.3

(Q) Respond only with pKb recorded for CC(CC(=O)/N=C(\N)NCCCc1ccc(CN(C)C)o1)c1ccccc1 (stereo not drawn)
(A) < 5
